Target: UniProt P35372
Experiment: Potency index, ratio of PK20 Ki to test compound Ki for displacement of [3H]-DAMGO from recombinant human mu opioid receptor expressed in CHO cell membranes
Numbered stars: 1 amine (or outer) side, 2 acyl side, 3 side chain; on linkers, the order of the positions; unused ones are H or OH. Square brackets hold non-standard residues; d marks the D form. Peptide text beside a SMILES is read from it. X1 = O=C1[C@@H](N[*:1])Cc2ccccc2CN1CCC(=O)[*:2]; X2 = O=C([C@@H]1Cc2cc(O)ccc2CN1[*:1])[*:2]; Dmt = Cc1cc(O)cc(C)c1C[C@H](N)C(=O)O; Tle = CC(C)(C)[C@H](N)C(=O)O
Assign Ratio Ki to each entry below.
The response must contain the number and no unit.

Need Ratio Ki, item Cc1cc(O)cc(C)c1C[C@H](N)C(=O)N[C@H](CCCNC(=N)N)C(=O)N[C@H]1Cc2ccccc2CN(CCC(=O)N[C@@H](CCCCN)C(=O)N[C@@H](CCCCN)C(=O)N2CCC[C@H]2C(=O)N2Cc3ccc(O)cc3C[C@H]2C(=O)N[C@H](C(=O)N[C@@H](CC(C)C)C(=O)O)C(C)(C)C)C1=O (H-[Dmt][dR][X1]KKP[X2][Tle]L-OH) 2

Need Ratio Ki, item Cc1cc(O)cc(C)c1C[C@H](N)C(=O)N[C@H](CCCNC(=N)N)C(=O)N[C@H]1Cc2ccccc2CN(CCC(=O)N[C@@H](CCCCN)C(=O)N[C@@H](CCCCN)C(=O)N2CCC[C@H]2C(=O)N[C@@H](Cc2ccc(O)cc2)C(=O)N[C@H](C(=O)N[C@@H](CC(C)C)C(=O)O)C(C)(C)C)C1=O (H-[Dmt][dR][X1]KKPY[Tle]L-OH) 2

Need Ratio Ki, item Cc1cc(O)cc(C)c1C[C@H](NC(=O)[C@@H]1CCCN1C(=O)[C@H](CCCCN)NC(=O)[C@H](CCCCN)NC(=O)CCN1Cc2ccccc2C[C@H](NC(=O)[C@@H](CCCNC(=N)N)NC(=O)[C@@H](N)Cc2c(C)cc(O)cc2C)C1=O)C(=O)N[C@H](C(=O)N[C@@H](CC(C)C)C(=O)O)C(C)(C)C (H-[Dmt][dR][X1]KKP[Dmt][Tle]L-OH) 2

* * *

Molecular target: Mu-type opioid receptor (Homo sapiens, UniProt P35372)
Sequence (P35372 whole entry): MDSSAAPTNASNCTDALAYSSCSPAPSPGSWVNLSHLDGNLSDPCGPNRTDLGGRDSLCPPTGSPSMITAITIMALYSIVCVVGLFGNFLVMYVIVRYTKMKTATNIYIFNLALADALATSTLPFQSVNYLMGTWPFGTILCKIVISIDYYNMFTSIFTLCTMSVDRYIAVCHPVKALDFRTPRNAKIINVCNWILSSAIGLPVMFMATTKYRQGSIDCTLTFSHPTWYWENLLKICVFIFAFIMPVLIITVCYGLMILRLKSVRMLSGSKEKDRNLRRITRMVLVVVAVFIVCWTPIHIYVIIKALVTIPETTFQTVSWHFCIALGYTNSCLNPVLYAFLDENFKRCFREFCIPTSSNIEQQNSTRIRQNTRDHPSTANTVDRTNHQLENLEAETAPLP
Test: Displacement of [3H]-DAMGO from recombinant human mu opioid receptor expressed in CHO cell membrane incubated for 60 mins by liquid scintillation counting method
Numbered stars: 1 amine (or outer) side, 2 acyl side, 3 side chain; on linkers, the order of the positions; unused ones are H or OH. Square brackets hold non-standard residues; d marks the D form. Peptide text beside a SMILES is read from it. X1 = O=C1[C@@H](N[*:1])Cc2ccccc2CN1CCC(=O)[*:2]; X2 = O=C([C@@H]1Cc2cc(O)ccc2CN1[*:1])[*:2]; Dmt = Cc1cc(O)cc(C)c1C[C@H](N)C(=O)O; mTyr = N[C@@H](Cc1cccc(O)c1)C(=O)O; β3hR = N=C(N)NCCC[C@H](N)CC(=O)O; Tle = CC(C)(C)[C@H](N)C(=O)O
test readout: pKi
Worth noting: pKi values are minus log10 of concentrations stated in mol/L.

Query for Mu-type opioid receptor (Homo sapiens, UniProt P35372): what pKi does the record show for Cc1cc(O)cc(C)c1C[C@H](NC(=O)[C@@H]1CCCN1C(=O)[C@H](CCCNC(=N)N)NC(=O)C[C@H](CCCNC(=N)N)NC(=O)CCN1Cc2ccccc2C[C@H](NC(=O)[C@@H](CCCNC(=N)N)NC(=O)[C@@H](N)Cc2c(C)cc(O)cc2C)C1=O)C(=O)N[C@H](C(=O)N[C@@H](CC(C)C)C(=O)O)C(C)(C)C (H-[Dmt][dR][X1][β3hR]RP[Dmt][Tle]L-OH) ? 8.76

Query for Mu-type opioid receptor (Homo sapiens, UniProt P35372): what pKi does the record show for Cc1cc(O)cc(C)c1C[C@H](N)C(=O)N[C@H](CCCNC(=N)N)C(=O)N[C@H]1Cc2ccccc2CN(CCC(=O)N[C@@H](CCCNC(=N)N)C(=O)N[C@@H](CCCNC(=N)N)C(=O)N2CCC[C@H]2C(=O)N[C@@H](Cc2ccc(O)cc2)C(=O)N[C@H](C(=O)N[C@@H](CC(C)C)C(=O)O)C(C)(C)C)C1=O (H-[Dmt][dR][X1]RRPY[Tle]L-OH) ? 8.88

Query for Mu-type opioid receptor (Homo sapiens, UniProt P35372): what pKi does the record show for Cc1cc(O)cc(C)c1C[C@H](N)C(=O)N[C@H](CCCNC(=N)N)C(=O)N[C@H]1Cc2ccccc2CN(CCC(=O)N[C@@H](CCCCN)C(=O)N[C@@H](CCCCN)C(=O)N2CCC[C@H]2C(=O)N[C@@H](Cc2cccc(O)c2)C(=O)N[C@H](C(=O)N[C@@H](CC(C)C)C(=O)O)C(C)(C)C)C1=O (H-[Dmt][dR][X1]KKP[mTyr][Tle]L-OH) ? 8.40

Query for Mu-type opioid receptor (Homo sapiens, UniProt P35372): what pKi does the record show for Cc1cc(O)cc(C)c1C[C@H](NC(=O)[C@@H]1CCCN1C(=O)[C@H](CCCNC(=N)N)NC(=O)[C@H](CCCNC(=N)N)NC(=O)CCN1Cc2ccccc2C[C@H](NC(=O)[C@@H](CCCNC(=N)N)NC(=O)[C@@H](N)Cc2c(C)cc(O)cc2C)C1=O)C(=O)N[C@H](C(=O)N[C@@H](CC(C)C)C(=O)O)C(C)(C)C (H-[Dmt][dR][X1]RRP[Dmt][Tle]L-OH) ? 8.95

Query for Mu-type opioid receptor (Homo sapiens, UniProt P35372): what pKi does the record show for Cc1cc(O)cc(C)c1C[C@H](N)C(=O)N[C@H](CCCNC(=N)N)C(=O)N[C@H]1Cc2ccccc2CN(CCC(=O)N[C@@H](CCCNC(=N)N)C(=O)N[C@@H](CCCNC(=N)N)C(=O)N2CCC[C@H]2C(=O)N2Cc3ccc(O)cc3C[C@H]2C(=O)N[C@H](C(=O)N[C@@H](CC(C)C)C(=O)O)C(C)(C)C)C1=O (H-[Dmt][dR][X1]RRP[X2][Tle]L-OH) ? 8.78

Query for Mu-type opioid receptor (Homo sapiens, UniProt P35372): what pKi does the record show for Cc1cc(O)cc(C)c1C[C@H](N)C(=O)N[C@H](CCCNC(=N)N)C(=O)N[C@H]1Cc2ccccc2CN(CCC(N)=O)C1=O ? 9.85

Query for Mu-type opioid receptor (Homo sapiens, UniProt P35372): what pKi does the record show for Cc1cc(O)cc(C)c1C[C@H](N)C(=O)N[C@H](CCCNC(=N)N)C(=O)N[C@H]1Cc2ccccc2CN(CCC(=O)N[C@@H](CCCCN)C(=O)N[C@@H](CCCCN)C(=O)N2CCC[C@H]2C(=O)N2Cc3ccc(O)cc3C[C@H]2C(=O)N[C@H](C(=O)N[C@@H](CC(C)C)C(=O)O)C(C)(C)C)C1=O (H-[Dmt][dR][X1]KKP[X2][Tle]L-OH) ? 8.20

* * *

Target: Kappa-type opioid receptor (Homo sapiens)
Sequence (P41145 whole entry): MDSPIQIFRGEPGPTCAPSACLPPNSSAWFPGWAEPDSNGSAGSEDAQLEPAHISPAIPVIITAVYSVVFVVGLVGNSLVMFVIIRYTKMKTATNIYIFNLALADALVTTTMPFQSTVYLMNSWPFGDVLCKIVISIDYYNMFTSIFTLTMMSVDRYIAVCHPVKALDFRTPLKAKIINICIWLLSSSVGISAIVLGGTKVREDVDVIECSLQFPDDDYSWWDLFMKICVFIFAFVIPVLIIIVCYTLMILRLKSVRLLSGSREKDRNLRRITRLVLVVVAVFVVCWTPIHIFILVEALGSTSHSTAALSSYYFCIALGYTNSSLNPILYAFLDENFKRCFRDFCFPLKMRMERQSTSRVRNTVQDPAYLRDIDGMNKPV
Experiment: Agonist activity at human KOR stably expressed in CHO cell membranes assessed as stimulation of [35S]-GTPgammaS binding incubated for 1 hr by liquid scintillation counting assay
Numbered stars: 1 amine (or outer) side, 2 acyl side, 3 side chain; on linkers, the order of the positions; unused ones are H or OH. Square brackets hold non-standard residues; d marks the D form. Peptide text beside a SMILES is read from it. X1 = O=C1[C@@H](N[*:1])Cc2ccccc2CN1CCC(=O)[*:2]; Dmt = Cc1cc(O)cc(C)c1C[C@H](N)C(=O)O; mTyr = N[C@@H](Cc1cccc(O)c1)C(=O)O; Tle = CC(C)(C)[C@H](N)C(=O)O; β3hK = NCCCC[C@H](N)CC(=O)O
Assign pEC50 to each entry below.
Worth noting: pEC50 values are minus log10 of concentrations stated in mol/L.

Need pEC50, item Cc1cc(O)cc(C)c1C[C@H](N)C(=O)N[C@H](CCCNC(=N)N)C(=O)N[C@H]1Cc2ccccc2CN(CCC(=O)N[C@@H](CCCNC(=N)N)C(=O)N[C@@H](CCCNC(=N)N)C(=O)N2CCC[C@H]2C(=O)N[C@@H](Cc2cccc(O)c2)C(=O)N[C@H](C(=O)N[C@@H](CC(C)C)C(=O)O)C(C)(C)C)C1=O (H-[Dmt][dR][X1]RRP[mTyr][Tle]L-OH) 6.37

Need pEC50, item Cc1cc(O)cc(C)c1C[C@H](NC(=O)[C@@H]1CCCN1C(=O)[C@H](CCCNC(=N)N)NC(=O)[C@H](CCCNC(=N)N)NC(=O)CCN1Cc2ccccc2C[C@H](NC(=O)[C@@H](CCCNC(=N)N)NC(=O)[C@@H](N)Cc2c(C)cc(O)cc2C)C1=O)C(=O)N[C@H](C(=O)N[C@@H](CC(C)C)C(=O)O)C(C)(C)C (H-[Dmt][dR][X1]RRP[Dmt][Tle]L-OH) 6.38

Need pEC50, item Cc1cc(O)cc(C)c1C[C@H](NC(=O)[C@@H]1CCCN1C(=O)[C@H](CCCCN)NC(=O)C[C@H](CCCCN)NC(=O)CCN1Cc2ccccc2C[C@H](NC(=O)[C@@H](CCCNC(=N)N)NC(=O)[C@@H](N)Cc2c(C)cc(O)cc2C)C1=O)C(=O)N[C@H](C(=O)N[C@@H](CC(C)C)C(=O)O)C(C)(C)C (H-[Dmt][dR][X1][β3hK]KP[Dmt][Tle]L-OH) 6.62

Need pEC50, item Cc1cc(O)cc(C)c1C[C@H](N)C(=O)N[C@H](CCCNC(=N)N)C(=O)N[C@H]1Cc2ccccc2CN(CCC(=O)N[C@@H](CCCCN)C(=O)N[C@@H](CCCCN)C(=O)N2CCC[C@H]2C(=O)N[C@@H](Cc2cccc(O)c2)C(=O)N[C@H](C(=O)N[C@@H](CC(C)C)C(=O)O)C(C)(C)C)C1=O (H-[Dmt][dR][X1]KKP[mTyr][Tle]L-OH) 6.40
